Below is a list of entries, each paired with its recorded Ki value.
molecular target: Carbonic anhydrase 9 (Homo sapiens)
Use nM as the unit, but write only the number.

> print(dat)
                                   compound  quantitative.readout
1  NS(=O)(=O)c1ccc(C(=O)NNC(=O)Nc2ccc(-c3ccccc3)cc2)cc1                   5.4
2  NS(=O)(=O)c1ccccc1C(=O)NNC(=O)NS(=O)(=O)c1ccccc1                    76
3                 COC(=O)c1ccccc1S(N)(=O)=O                   680
4  NS(=O)(=O)c1ccc(C(=O)NNC(=O)NC2c3ccccc3-c3ccccc32)cc1                    13

Find the recorded Ki belonging to `Cc1ccccc1S(=O)(=O)NC(=O)NNC(=O)c1ccc(S(N)(=O)=O)cc1` and report it.
32

Now give it for `Cc1ccc(S(=O)(=O)NC(=O)NNC(=O)c2ccccc2S(N)(=O)=O)cc1` too.
70

Would you mind doing NS(=O)(=O)c1ccc(C(=O)O)cc1 [CARZENIDE] as well?
346

What would you report for `NS(=O)(=O)c1ccccc1C(=O)NNC(=O)NS(=O)(=O)c1ccc(F)cc1` ?
64

Proceed to `Cc1ccc(S(=O)(=O)NC(=O)NNC(=O)c2ccc(S(N)(=O)=O)cc2)cc1`
5.8

Now give it for `NS(=O)(=O)c1ccc(C(=O)NNC(=O)NS(=O)(=O)c2ccccc2)cc1` too.
35

Can you check `Cc1ccccc1S(=O)(=O)NC(=O)NNC(=O)c1ccccc1S(N)(=O)=O` next?
83

Now the compound `NS(=O)(=O)c1ccc(C(=O)NNC(=O)Nc2ccc(Oc3ccccc3)cc2)cc1`
7.9

Another compound to check: `NS(=O)(=O)c1ccc(C(=O)NNC(=O)NS(=O)(=O)c2ccc(Cl)cc2)cc1`
5.4
